As shown below, each of these molecules has a reported k2 (elimination rate constant), Simultaneous BCF value.
Test system: Gammarus pulex
Assay Info: Toxicokinetic exposure (48 h uptake, 48 h depuration) of radio-labelled pharmaceuticals, first-order one-compartment model (OECD 305)
Conditions Used: simultaneous method; 1 μg·L^− 1 (diclofenac, ibuprofen 10 μg·L^− 1); 15 °C, pH 8.2
All answers are understood in day^− 1, so give the number only.

COc1ccc(CC(C)NCC(O)c2ccc(O)c(NC=O)c2)cc1 (stereo not shown)	0.029
O=C(O)Cc1ccccc1Nc1c(Cl)cccc1Cl	0.020
CN(C)CCCN1c2ccccc2CCc2ccccc21	0.007

input: Gammarus pulex / k2 (elimination rate constant), Simultaneous BCF / CC(C)(C)NCC(O)c1cc(O)cc(O)c1 (stereo not shown) : value?
output: 0.011

Taken from paper PMC4956724.
